- assay-procedure: galactose survival enhancers in mitochondrial complex I cybrids – cell-based, galactose medium, ATP luminescence, primary screen (AID 1645843);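 note: positive z means more ATP and so rescue of galactose-driven cybrid death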
- experimental-context: complex I mutant cybrid cells, 72 h, stronger effect = higher value
Calls of active or inactive are those of the source.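 Rule for the calls: active = z-score of at least 1.8 in each of two replicates, scored against plate mean and spread of sample wells; inactive = the rest.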
Can you tell me z-score for the items I'm about to list?

Request: Provide one value: measured z-score of `Nc1ccc(C(=O)O)c(O)c1`
Result: 0.45 (inactive)

Request: Provide one value: measured z-score of `CCN(CC)CCNC(=O)c1cc(S(C)(=O)=O)ccc1OC`
Result: 0.285 (inactive)

Request: Provide one value: measured z-score of `CN(C/C=C/C#CC(C)(C)C)Cc1cccc2ccccc12`
Result: -1.48 (inactive)

###

- assay-procedure: MELAS cybrid and Rieske KO viability enhancers – cell-based, MELAS cybrids, Rieske KO mouse fibroblasts, CellTiter-Glo, primary screen (AID 1508586);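 note: test concentration not given here; z relative to plate mean and SD of compound and empty wells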
- experimental-context: MELAS cybrid survival, low glucose, CellTiter-Glo 48 h; stronger effect = higher value
Heads up, the class ranges for z-score are one = under -0.5, two = from -0.5 up to 0.4, three = 0.4 and over

Request: Class (by measured z-score) for `C=C1c2cccc(O)c2C(O)=C2C(=O)[C@]3(O)C(O)=C(C(N)=O)C(=O)[C@@H](N(C)C)[C@@H]3[C@@H](O)[C@H]12`
Result: two

Request: Class (by measured z-score) for `C[n+]1ccccc1/C=N/O`
Result: three

Request: Class (by measured z-score) for `Cn1c(=O)c2c(ncn2C)n(C)c1=O`
Result: three

Request: Class (by measured z-score) for `OC[C@H]1O[C@@H](Oc2ccc(O)cc2)[C@H](O)[C@@H](O)[C@@H]1O`
Result: three

Request: Class (by measured z-score) for `Nc1cc(-c2ccncc2)c[nH]c1=O`
Result: one

Request: Class (by measured z-score) for `COc1cc2c(N3CCN(C(=O)Nc4ccc(OC(C)C)cc4)CC3)ncnc2cc1OCCCN1CCCCC1`
Result: one

Request: Class (by measured z-score) for `CC(=O)O[C@]1(C(C)=O)CC[C@H]2[C@@H]3C=C(Cl)C4=CC(=O)[C@@H]5C[C@@H]5[C@]4(C)[C@H]3CC[C@@]21C`
Result: two

Request: Class (by measured z-score) for `COc1cc(NS(=O)(=O)c2ccc(N)cc2)ncn1`
Result: three

Request: Class (by measured z-score) for `CS(=O)(=O)c1ccc([C@@H](O)[C@@H](CO)NC(=O)C(Cl)Cl)cc1`
Result: three

Request: Class (by measured z-score) for `Oc1c(Br)cc(Br)c2cccnc12`
Result: two

Request: Class (by measured z-score) for `CCOC(=O)NNc1nncc2ccccc12`
Result: one

###

- assay-procedure: viability loss with induced miR-34 in A549 – imaging, A549 dox-inducible miR-34, nuclei and caspase counts, primary screen (AID 1347080); note: test concentration not given here
- experimental-context: A549 miR-34 inducible, Hoechst nuclei count, 48 h; stronger effect = lower value; cell number ratio, induced over uninduced
The source made the active and inactive calls.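 The calls were made as follows: active = compounds whose cell count with miR-34 switched on is under 0.7 times the count with it off; inactive = the rest.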
measured-metric: fold change

Request: Provide one value: measured fold change of `CC(=O)Nc1ccc(S(=O)(=O)Nc2ccc([N+](=O)[O-])cc2)cc1`
Result: 0.908 (inactive)

Request: Provide one value: measured fold change of `CC(=O)O[C@H]1C[C@@H]2CC[C@@H]3[C@H](CC[C@@]4(C)[C@H]3C[C@H]([N+]3(C)CCCCC3)[C@@H]4OC(C)=O)[C@@]2(C)C[C@@H]1N1CCCCC1`
Result: 0.831 (inactive)

Request: Provide one value: measured fold change of `O=C(O)CCCC[C@@H]1SC[C@@H]2NC(=O)N[C@@H]21`
Result: 0.845 (inactive)

Request: Provide one value: measured fold change of `Cc1cc2nc3c(=O)[nH]c(=O)nc-3n(C[C@H](O)[C@H](O)[C@H](O)CO)c2cc1C`
Result: 0.873 (inactive)
